- target_under_test: human STAT6/pIL-4Rα (Homo sapiens)
- Construct: histidine tag
- measurement_notes: Binding inhibitory activity between human STAT6/pIL-4Rα by fluorescence polarization method
- details: rhSTAT6 (123-658) / FAM-pIL-4Rα peptide
property_measured: IC50 (nM)

Below, 4 compounds whose answers are already recorded.
COCCn1c(-c2ccc(-n3c(C)nn(C)c3=O)cc2)cc2ccnc(C(=O)Nc3cccc(C(=O)Nc4cccn(C)c4=O)c3)c21 [Ex. 196]    270
C/C(=C\C(=O)N[C@H](C(=O)N1CCC[C@H]1C(=O)N(C)c1ccccc1)C(C)(C)C)c1ccc(OP(=O)(O)O)cc1 [PM-301H, reference compound]    270
CCn1c(-c2ccc(-n3c(C)nn(C)c3=O)cc2)cc2cc(C(F)(F)F)cc(C(=O)Nc3ccc(CC(N)=O)cc3)c21 [Ex. 103]    2660
CCn1c(-c2ccc(N3C(=O)C(C)CC3C)cc2)nc2cc(C(F)(F)F)cc(C(=O)Nc3cccc(C(N)=O)c3)c21 (single isomer, unassigned) [Ex. 12]    350

(a) CCn1c(-c2ccc(-n3c(C)nn(C)c3=O)nc2)cc2cccc(C(=O)Nc3ccc(F)c(C(N)=O)c3)c21 [Ex. 151]
(b) COCCn1c(-c2ccc(-n3c(C)nn(C)c3=O)cc2)cc2cc(C(F)(F)F)cc(C(=O)Nc3ccc(F)cc3)c21 [Ex. 53]
Asked: Field: entry with larger IC50 (options a / b ). Write the label of whichever entry you select.
Given back: b
(b: 3970 nM, a: 610 nM)

###

- target_under_test: human STAT6/pIL-4Rα (Homo sapiens, UniProt P42226)
- Construct: histidine tag
- Sequence (P42226 123-658): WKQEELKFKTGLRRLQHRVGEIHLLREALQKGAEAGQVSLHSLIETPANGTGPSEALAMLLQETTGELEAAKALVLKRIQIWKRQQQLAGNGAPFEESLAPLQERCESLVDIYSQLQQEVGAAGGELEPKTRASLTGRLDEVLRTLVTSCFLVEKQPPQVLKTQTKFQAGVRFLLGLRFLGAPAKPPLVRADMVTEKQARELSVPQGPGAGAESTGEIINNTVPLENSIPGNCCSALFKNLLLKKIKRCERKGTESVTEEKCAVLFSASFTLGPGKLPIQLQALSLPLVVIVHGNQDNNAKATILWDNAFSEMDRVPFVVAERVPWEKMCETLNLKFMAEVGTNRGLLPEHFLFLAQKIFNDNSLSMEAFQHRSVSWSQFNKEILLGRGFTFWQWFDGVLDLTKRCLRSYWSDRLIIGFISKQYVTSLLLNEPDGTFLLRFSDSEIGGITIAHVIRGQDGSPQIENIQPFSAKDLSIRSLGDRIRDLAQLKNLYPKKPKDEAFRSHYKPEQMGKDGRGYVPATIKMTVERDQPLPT
- measurement_notes: Binding inhibitory activity between human STAT6/pIL-4Rα by fluorescence polarization method
- details: rhSTAT6 (123-658) / FAM-pIL-4Rα peptide
property_measured: IC50 (nM)

CCn1c(-c2ccc(-n3cccn3)cc2)nc2cc(Br)cc(C(=O)Nc3cccc(C(N)=O)c3)c21    660
Cc1nn(C)c(=O)n1-c1ccc(-c2cc3ccnc(C(=O)Nc4cccc(C(N)=O)c4F)c3n2CC2CC2)cc1    940

(A) Cc1nn(C)c(=O)n1-c1ccc(-c2cc3cc(C(F)(F)F)nc(C(=O)Nc4cccc(C(N)=O)c4F)c3n2C)cc1
(B) CCn1c(-c2ccc(N3C(=O)C(C)CC3C)cc2)nc2cc(C(F)(F)F)cc(C(=O)Nc3cccc(C(N)=O)c3F)c21 (single isomer, unassigned) [Ex. 220]
Asked: For the pair A and B , which member has the lower IC50 number? Output the label that corresponds to your choice.
Given back: A

(a) CCn1c(-c2ccc(-n3ncn(C)c3=O)cc2)cc2cc(C(F)(F)F)cc(C(=O)Nc3cccc(C(N)=O)c3)c21
(b) COCCn1c(-c2ccc(N(C)C(C)=O)cc2)nc2cc(C(C)C)cc(C(=O)Nc3cccc(C(N)=O)c3)c21
Asked: Between the entries labelled a and b , which has a larger IC50 value on record? Pick one; state its label.
Given back: b

###

- target_under_test: human STAT6/pIL-4Rα (Homo sapiens, UniProt P42226)
- Construct: histidine tag
- Sequence (P42226 123-658): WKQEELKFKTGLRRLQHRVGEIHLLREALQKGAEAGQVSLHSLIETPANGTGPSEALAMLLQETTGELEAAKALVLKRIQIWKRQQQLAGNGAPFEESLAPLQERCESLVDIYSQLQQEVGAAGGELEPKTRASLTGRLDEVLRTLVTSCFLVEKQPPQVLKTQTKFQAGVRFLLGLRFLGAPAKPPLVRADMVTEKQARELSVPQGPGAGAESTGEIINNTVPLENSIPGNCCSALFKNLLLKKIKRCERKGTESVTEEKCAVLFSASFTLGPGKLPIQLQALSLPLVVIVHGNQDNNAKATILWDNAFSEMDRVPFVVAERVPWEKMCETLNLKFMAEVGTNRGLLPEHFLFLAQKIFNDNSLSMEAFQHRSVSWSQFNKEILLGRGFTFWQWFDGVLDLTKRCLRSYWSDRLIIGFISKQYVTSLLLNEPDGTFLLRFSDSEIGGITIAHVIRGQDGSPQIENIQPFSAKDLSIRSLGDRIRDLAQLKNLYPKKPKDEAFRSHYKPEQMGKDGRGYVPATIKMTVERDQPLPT
- measurement_notes: Binding inhibitory activity between human STAT6/pIL-4Rα by fluorescence polarization method
- details: rhSTAT6 (123-658) / FAM-pIL-4Rα peptide
- Excerpt: Test Example 1: Measurement of Binding Inhibitory Activity Between Human STAT6/pIL-p 4Rα by Fluorescence Polarization Method 1) Construction of Histidine Tag-Fused Recombinant Human STAT6 (123 to 658 Region) […] 2) Measurement of Binding Inhibitory Activity Between Human STAT6/pIL-4Rα by Fluorescence Polarization Method […]
pIC50: −log10 of the molar value.
property_measured: pIC50

Some entries whose results are on file:
CCn1c(-c2ccc(-n3cnn(C)c3=O)cn2)cc2cc(C(F)(F)F)cc(C(=O)Nc3ccc(F)c(C(N)=O)c3)c21 [Ex. 64]    5.58
CCn1c(-c2ccc(-n3cnn(C)c3=O)cc2)c(Cl)c2cc(C(F)(F)F)cc(C(=O)Nc3cccc(C(N)=O)c3)c21 [Ex. 141]    6.04
CCn1c(-c2ccc(N3C(=O)C(C)CC3C)cc2)nc2cc(C(F)(F)F)cc(C(=O)Nc3cccc(C(N)=O)c3)c21 (racemic) [Ex. 11]    6.36

(1) CCn1c(-c2ccc(-n3c(C)nn(C)c3=O)nc2)cc2cc(C(F)(F)F)cc(C(=O)Nc3ccc(F)c(C(N)=O)c3)c21 [Ex. 20]
(2) CCn1c(-c2ccc(-n3c(C)nn(C)c3=O)cc2)cc2ccnc(C(=O)Nc3cccc(C(=O)O)c3)c21 [Ex. 164]
Asked: Could you check which of 1 and 2 has a smaller value for pIC50? // return label of chosen record
Given back: 1
(1: 6.18, 2: 6.49)

###

- target_under_test: human STAT6/pIL-4Rα (Homo sapiens)
- Construct: histidine tag
- measurement_notes: Binding inhibitory activity between human STAT6/pIL-4Rα by fluorescence polarization method
- details: rhSTAT6 (123-658) / FAM-pIL-4Rα peptide
- Source text: Test Example 1: Measurement of Binding Inhibitory Activity Between Human STAT6/pIL-p 4Rα by Fluorescence Polarization Method 1) Construction of Histidine Tag-Fused Recombinant Human STAT6 (123 to 658 Region) […] 2) Measurement of Binding Inhibitory Activity Between Human STAT6/pIL-4Rα by Fluorescence Polarization Method […]
property_measured: IC50 (nM)

CCn1c(-c2ccc(-n3c(C)nn(C)c3=O)cc2)cc2cc(C(F)(F)F)nc(C(=O)Nc3ccc(F)c(C(N)=O)c3)c21 [Ex. 23]    240
COCCn1c(-c2ccc(-n3c(C)nn(C)c3=O)cc2)cc2cc(C(F)(F)F)cc(C(=O)Nc3cccc(C(=O)Nc4ccn(CC(=O)OC)n4)c3)c21 [Ex. 181]    310
CCn1c(-c2ccc(N3CCOCC3=O)cc2)cc2ccnc(C(=O)Nc3ccc(F)c(C(=O)NCC#N)c3)c21 [Ex. 150]    240

(A) COCCn1c(-c2ccc(-n3c(C)nn(C)c3=O)cc2)cc2ccnc(C(=O)Nc3cccc(C(=O)Nc4cc(Cl)n(C)n4)c3)c21 [Ex. 202]
(B) COCCn1c(-c2ccc(-n3c(C)nn(C)c3=O)cc2)cc2cc(C(F)(F)F)cc(C(=O)Nc3cccc(S(N)(=O)=O)c3)c21 [Ex. 63]
(C) C#Cc1cc(C(=O)Nc2cccc(C(N)=O)c2)c2c(c1)nc(-c1ccc(N(C)C(C)=O)cc1)n2CCOC [Ex. 206]
(D) Cc1nn(C)c(=O)n1-c1ccc(-c2cc3ccnc(C(=O)Nc4cccc(C(=O)Nc5cccn(C)c5=O)c4)c3n2CC2(C#N)CC2)cc1 [Ex. 200]
Asked: hey, can you rank those compounds up there by IC50? biggest number first please Please list the labels in the order you were asked to rank them.
Given back: C, B, A, D
